Source: patent US20190041402A1

- STUDY SYSTEM: T1, extracellular domain (ECD) of human αKlotho, amino acids E34-S981 with C-terminal 6-His tag (R&D Systems … (human, UniProt Q9UEF7 34-981))
- T1 construct: range 34-981; also called αKlotho (aa34-981); target antigen
- T1 sequence: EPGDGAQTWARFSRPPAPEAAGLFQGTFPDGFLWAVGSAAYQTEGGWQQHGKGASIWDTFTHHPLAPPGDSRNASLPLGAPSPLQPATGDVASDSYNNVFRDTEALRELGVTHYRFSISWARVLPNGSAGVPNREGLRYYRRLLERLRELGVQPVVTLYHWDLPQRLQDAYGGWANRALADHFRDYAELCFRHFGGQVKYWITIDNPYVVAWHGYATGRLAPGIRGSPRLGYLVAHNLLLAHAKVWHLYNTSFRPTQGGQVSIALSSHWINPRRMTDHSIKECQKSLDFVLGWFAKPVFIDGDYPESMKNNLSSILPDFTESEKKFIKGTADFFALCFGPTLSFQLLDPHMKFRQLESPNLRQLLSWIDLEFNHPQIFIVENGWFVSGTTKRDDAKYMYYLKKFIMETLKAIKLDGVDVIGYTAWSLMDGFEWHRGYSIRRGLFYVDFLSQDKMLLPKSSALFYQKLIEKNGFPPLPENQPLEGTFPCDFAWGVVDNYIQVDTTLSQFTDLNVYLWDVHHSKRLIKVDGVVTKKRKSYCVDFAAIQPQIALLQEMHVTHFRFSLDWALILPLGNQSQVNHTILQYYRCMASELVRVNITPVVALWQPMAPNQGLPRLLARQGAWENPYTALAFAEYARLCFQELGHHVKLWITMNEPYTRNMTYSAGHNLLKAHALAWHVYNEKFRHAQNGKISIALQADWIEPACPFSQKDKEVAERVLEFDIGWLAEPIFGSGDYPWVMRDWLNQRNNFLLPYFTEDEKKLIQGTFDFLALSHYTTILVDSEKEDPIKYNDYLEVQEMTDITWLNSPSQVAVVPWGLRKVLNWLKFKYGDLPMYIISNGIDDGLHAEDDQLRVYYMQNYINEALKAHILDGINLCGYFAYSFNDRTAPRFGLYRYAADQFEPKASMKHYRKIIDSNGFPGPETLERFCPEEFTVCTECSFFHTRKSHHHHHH
- ASSAY METHOD TEXT: SPR, Fab captured by anti-H+L antibody, αKlotho injected
OBSERVABLE: pKd
A value of pKd is the negative decimal logarithm of a concentration given in moles per litre.

# binder anti-αKlotho Fab clone 4833 (Fab, V domains shown, Fab (also as Fab-phage); FLAG tag on light chain; also called sb202) VH: EVQLVESGGGLVQPGGSLRLSCAASGFNLSSYYMHWVRQAPGKGLEWVASIYPSYSSTYYADSVKGRFTISADTSKNTAYLQMNSLRAEDTAVYYCARSSYSVYFWWYVSAMDYWGQGTLVTVSS VL: DIQMTQSPSSLSASVGDRVTITCRASQSVSSAVAWYQQKPGKAPKLLIYSASSLYSGVPSRFSGSRSGTDFTLTISSLQPEDFATYYCQQSSHGHYPITFGQGTKVEIKR ; its pKd = 8.85

pKd in this record for sb106 Fab (Fab, V domains shown, also called Fsb106; clone 48) VH: EVQLVESGGGLVQPGGSLRLSCAASGFNISYYSIHWVRQAPGKGLEWVAYISPSYGYTSYADSVKGRFTISADTSKNTAYLQMNSLRAEDTAVYYCARYYVYASHGWAGYGMDYWGQGTLVTVSS VL: DIQMTQSPSSLSASVGDRVTITCRASQSVSSAVAWYQQKPGKAPKLLIYSASSLYSGVPSRFSGSRSGTDFTLTISSLQPEDFATYYCQQAGYSPITFGQGTKVEIKR : 8.72

anti-αKlotho Fab clone 4829 (Fab, V domains shown, Fab (also as Fab-phage); FLAG tag on light chain; also called sb198) VH: EVQLVESGGGLVQPGGSLRLSCAASGFNISSYYIHWVRQAPGKGLEWVASIYSSYGYTSYADSVKGRFTISADTSKNTAYLQMNSLRAEDTAVYYCARYSWSPYWWWAYSGLDYWGQGTLVTVSS VL: DIQMTQSPSSLSASVGDRVTITCRASQSVSSAVAWYQQKPGKAPKLLIYSASSLYSGVPSRFSGSRSGTDFTLTISSLQPEDFATYYCQQGGGLITFGQGTKVEIKR has a reported pKd of 8.74

Short answer for anti-αKlotho Fab clone 4820 (Fab, V domains shown, Fab (also as Fab-phage); FLAG tag on light chain; also called sb189) VH: EVQLVESGGGLVQPGGSLRLSCAASGFNISSYYMHWVRQAPGKGLEWVASIYSSYSSTYYADSVKGRFTISADTSKNTAYLQMNSLRAEDTAVYYCARGAWAMDYWGQGTLVTVSS VL: DIQMTQSPSSLSASVGDRVTITCRASQSVSSAVAWYQQKPGKAPKLLIYSASSLYSGVPSRFSGSRSGTDFTLTISSLQPEDFATYYCQQSPWGAYLITFGQGTKVEIKR : pKd was 8.57

# binder anti-αKlotho Fab clone 4812 (Fab, V domains shown, Fab (also as Fab-phage); FLAG tag on light chain; also called sb181) VH: EVQLVESGGGLVQPGGSLRLSCAASGFNLSSYSMHWVRQAPGKGLEWVASISSYSGYTSYADSVKGRFTISADTSKNTAYLQMNSLRAEDTAVYYCARSYSWWWSVSYAMDYWGQGTLVTVSS VL: DIQMTQSPSSLSASVGDRVTITCRASQSVSSAVAWYQQKPGKAPKLLIYSASSLYSGVPSRFSGSRSGTDFTLTISSLQPEDFATYYCQQGYWLFTFGQGTKVEIK ; its pKd = 9.05
